The values you see were collected from paper PMC8465290.

Listing of entries alongside the reported hypoglycemia, % of the A.D.R. per S.O.C..
Assay: Pharmacovigilance analysis of A.D.R. in EudraVigilance database
Design: species or system human
Entry rule: numbers only, all in %.

Below, each entry is followed by its recorded hypoglycemia, % of the A.D.R. per S.O.C. result.
>>> readout_number("CC(C)[C@H]1CC[C@H](C(=O)N[C@H](Cc2ccccc2)C(=O)O)CC1 [nateglinide]")
77.9
>>> readout_number("CCOc1cc(CC(=O)N[C@@H](CC(C)C)c2ccccc2N2CCCCC2)ccc1C(=O)O [repaglinide]")
84.6

Input O=P(O)(O)C(O)(Cn1ccnc1)P(=O)(O)O [Zoledronic acid] . Output hypoglycemia, % of the A.D.R. per S.O.C.: 1.63

Input CCC1=C(C)CN(C(=O)NCCc2ccc(S(=O)(=O)NC(=O)N[C@H]3CC[C@H](C)CC3)cc2)C1=O [glimepiride] . Output hypoglycemia, % of the A.D.R. per S.O.C.: 75.6
